Assay: S. cerevisiae growth inhibition in permissive medium (OD615), pilot counter-assay for S. cerevisiae lifespan shortening project, permissive growth control (AID 705)
Conditions: OD615, 24 h, at 10 µM, stronger effect = higher value
measured-property: growth inhibition (%)

compound | measured-property | output-unit | value-observed
FC(F)Sc1ccc(Nc2ncnc3nc[nH]c23)cc1 | growth inhibition | % | 16.9
Cn1c(=O)[nH]c(=O)c2c1nc(Sc1ccccc1)n2CCc1ccccc1 | growth inhibition | % | -4.23
O=C(Nc1ccccn1)c1cccc(S(=O)(=O)N2CCOCC2)c1 | growth inhibition | % | 6.61
CCC(C)C(NC(=O)C1CCC(C)CC1)C(=O)NCc1cccnc1 (stereo not given) | growth inhibition | % | -12.5
CCCc1cc(C(=O)Nc2sc3c(c2C#N)CCC3)no1 | growth inhibition | % | 4.12
NC(=O)CSc1cn(CCNC(=O)c2cccs2)c2ccccc12 | growth inhibition | % | -14.1
CCOCCCNC(=O)c1ccc2c(c1)N(Cc1ccccc1)C(=O)CS2=O (stereo not given) | growth inhibition | % | -5.99
CCOC(=O)CN1C(=O)C(=O)c2cccc(C)c21 | growth inhibition | % | 0.235
CCOC(=O)c1ccc(N=c2sc(C(=O)OC)cc(=O)n2Cc2ccco2)cc1 | growth inhibition | % | -11.7
CN1CCN(C(=O)c2ccccc2NC(=O)Cc2ccccc2)CC1 | growth inhibition | % | -12.3
CC1CC(NC(=O)c2cnc3n(c2=O)CCS3)CC(C)(C)C1 (stereo not given) | growth inhibition | % | -8.98
Clc1ccc(-c2noc(COc3ccccc3)n2)cc1 | growth inhibition | % | -3.93
Cc1ccc2c(c1)c(C)c(C)n2CC(O)CN1CCCCC1C (stereo not given) | growth inhibition | % | -9.72
Cc1ccc2oc(=O)c3cnn(CC(=O)NCCc4ccsc4)c3c2c1 | growth inhibition | % | 3.75
COC(=O)c1ccc(-c2nc(-c3ccc(Br)o3)no2)cc1 | growth inhibition | % | -14
O=C(c1ccc2snnc2c1)N1CCOCC1 | growth inhibition | % | 0.235
Cc1noc(/C=C/N(C)C)c1S(=O)(=O)N1CCCC(C(=O)NC2CCCCC2)C1 (stereo not given) | growth inhibition | % | 2.12
COc1ccc(N2C(=O)CCC(C(=O)N3CCCCC3)C2c2ccc(OC)c(OC)c2)cc1 (stereo not given) | growth inhibition | % | -0.77
O=C(CC1Oc2ccc(Cl)cc2NC1=O)NC1CCCCCC1 (stereo not given) | growth inhibition | % | -4.77
Cc1csc(C(C#N)C(=O)c2cc3ccccc3o2)n1 (stereo not given) | growth inhibition | % | -21.6
O=C1C(Cl)=C(N2CCCCCC2)C(=O)N1c1ccccc1 | growth inhibition | % | -12.4
CCOC(=O)c1cc2c(=O)n3ccccc3nc2n(CCCOC)c1=NC(C)=O | growth inhibition | % | -6.91
COc1cccc(C2CC(c3ccc(F)cc3)Nc3nc(N)nn32)c1 (stereo not given) | growth inhibition | % | -3.78
O=C(CS(=O)(=O)c1cn(Cc2ccc(F)cc2)c2ccccc12)N1CCCCC1 | growth inhibition | % | -24.1
O=C(CCN1C(=O)c2ccccc2C1=O)NCCN1CCOCC1 | growth inhibition | % | -11.9
CC1=C(C(=O)Nc2ccc(F)cc2)C(c2cccc(C)c2)n2nc(CCCO)nc2N1 (stereo not given) | growth inhibition | % | -1.56
COc1cccc2cc(C(=O)N3CCN(c4ccc(C)cc4C)CC3)c(=O)oc12 | growth inhibition | % | -7.67
CCOC(=O)C1CCN(c2c(NC3CCCc4ccccc43)c(=O)c2=O)CC1 (stereo not given) | growth inhibition | % | 6.77
COC(=O)C1(C(F)(F)F)N=C2Sc3ccccc3N2C(N2CCOCC2)=N1 (stereo not given) | growth inhibition | % | -9.31
O=C(COC(=O)C1CC2C=CC1C2)Nc1ccc2c(c1)OC(F)(F)O2 (stereo not given) | growth inhibition | % | -9.33
COC(=O)c1ccc(COc2ccc3c(C)c(C)c(=O)oc3c2)o1 | growth inhibition | % | -4.33
CCOc1ccc2[nH]c(C)cc(=O)c2c1 | growth inhibition | % | -12.8
COc1cccc(C2CC(c3cccc(Br)c3)n3nc(N)nc3N2)c1 (stereo not given) | growth inhibition | % | 2.54
COc1ccc(C(=O)CSc2nnc(-c3ccccc3)o2)cc1 | growth inhibition | % | 4.92
Cc1ccc2cccc(SCC(=O)N3CCOCC3)c2n1 | growth inhibition | % | 2.63

----------
Recorded measurements of growth inhibition, one per entry
Experiment: S. cerevisiae growth inhibition in permissive medium (OD615), pilot counter-assay for S. cerevisiae lifespan shortening project, permissive growth control (AID 705)
Settings: OD615, 24 h, at 10 µM, stronger effect = higher value

compound | output-unit | growth inhibition
Cn1c(SCC(=O)c2cc3ccccc3o2)nnc1-c1ccccc1 | % | 10.3
CN(CC(=O)N1CCCCC1)S(=O)(=O)c1cccc2cccnc12 | % | -4.94
Cc1nc2ccccc2c2oc(C(=O)NCCCN3CCCC3=O)cc12 | % | -0.475
CC(C)C(NC(=O)c1ccc(S(=O)(=O)N2CCOCC2)cc1)c1nc2ccccc2[nH]1 (centres undefined) | % | -13.7
N#C/C(C(=O)N1CCOCC1)=C1/SC=C(c2ccccc2)N1c1ccccc1 | % | -1.56
CCOC(=O)c1c(C)n(OCc2ccccc2)c2ccc3c(no[n+]3[O-])c12 | % | -12.4
COc1ccc(C2CC(c3ccco3)n3ncnc3N2)cc1 (centres undefined) | % | -4.26
Cc1ccc(-c2cc(C(F)F)nc(N3CCC(C)CC3)n2)cc1 | % | 3.35
COc1cccc(-c2nc3cc(C)ccc3o2)c1 | % | -5.93
OC(CNCCc1ccccc1)c1ccccc1 (centres undefined) | % | -6.34
COc1ccc(C2C(C(C)=O)=C(C)N=c3s/c(=C/c4ccc5c(c4)OCO5)c(=O)n32)cc1 (centres undefined) | % | -11.4
O=C(CSC1=NCCS1)NCc1ccco1 | % | 6.88
COCc1nnc(NC(=O)c2ccc(S(=O)(=O)N(C)c3ccccc3)cc2)o1 | % | 3.04
COc1ccc(Cc2nnc(NC(=O)c3c(-c4ccccc4)noc3C)s2)cc1 | % | -14

----------
Reported viability values follow for various compounds
Assay: MRP1 drug-resistance reversers in H69AR cells – cell-based, doxorubicin co-treatment, pilot screen (AID 601)
Conditions: H69AR cells + 2 uM doxorubicin, CellTiter-Glo, 72 h; measured here: viability with 2 uM doxorubicin; at 10 µM; stronger effect = lower value

compound | viability [%]
CC(=O)Nc1cccc(NC(=O)CSc2nn3c(=O)c(C)nnc3s2)c1 | 75.3
CCCCN(C(=O)c1ccc(Cl)cc1)C1CC2CCC(C1)N2C (configuration not stated) | 81.2
CCN(CC)C1CCCCC1NS(=O)(=O)c1ccc(Cl)cc1 (configuration not stated) | 87.8
COc1ccc(N2CCN(C(c3ccccc3)c3sc4nc(C)nn4c3O)CC2)cc1 (configuration not stated) | 98.4
O=C(COc1ccc(=O)n(-c2ccccc2)n1)Nc1ccccc1 | 92.4
Cc1ccc(C)c(C(=O)CC2(O)C(=O)N(C)c3ccccc32)c1 (configuration not stated) | 82.1
CC1CCCN(S(=O)(=O)c2coc(C(N)=O)c2)C1 (configuration not stated) | 118
COc1ccc(CNC(=O)c2nnn(Cc3ccc(OC)cc3)c2N)cc1 | 88.3
CCc1c(C)c2c(C)nn(-c3ccccc3)c2[nH]c1=O | 84.2
COc1cccc(NC(=O)CSc2nnc(Cc3cccn3C)n2-c2ccc(F)cc2)c1 | 86.2
Cc1nnc(SCC(=O)Nc2ccc3c4c(cccc24)CC3)n1C | 86.8
COc1cccc(C2CC(=O)Nc3cc4c(cc32)OCCO4)c1OC(C)C (configuration not stated) | 70.7
CC(=O)N(C(C)=O)c1ncc2c([nH]c3ccccc32)c1C#N | 81.9
O=C(CC1Oc2ccccc2NC1=O)NCCCN1CCOCC1 (configuration not stated) | 96.9
O=C(Cn1nc(Cc2cccnc2)c2ccccc2c1=O)NCC1CCCO1 (configuration not stated) | 95.4
C/C=C/CSc1nc2c(c(=O)[nH]c(=O)n2C)n1Cc1ccc(C)cc1 | 58.2
O=C(c1ccc2nc(N3CCCCC3)sc2c1)N1CCN(c2ccccn2)CC1 | 100

----------
Assay: S. cerevisiae growth inhibition in permissive medium (OD615), pilot counter-assay for S. cerevisiae lifespan shortening project, permissive growth control (AID 705)
Conditions: OD615, 24 h, at 10 µM, stronger effect = higher value

compound | output-unit | growth inhibition
CCOc1ccc(C2CC(c3cccc(OC)c3)Nc3ncnn32)cc1 (stereo not given) | % | -2.08
CC1Cc2ccccc2N1C(=O)C12CCC(C)(C(=O)C1)C2(C)C (stereo not given) | % | -23.2
CCOC(=O)N1CCN(c2nc(=S)n(-c3ccccc3)c(C)c2C(C)=O)CC1 | % | 14.8
Cc1nc(NCc2ccc3c(c2)OCO3)c2oc3ccccc3c2n1 | % | -23.6
COc1ccc(CC(=O)Nc2cc(=O)n(C)c(=O)n2C)cc1 | % | -5.75
CCOC(=O)c1[nH]c(C)c(C(=O)NC)c1C | % | -4.37
CC(=NCC1CCNCC1)C1=C(O)CC(C)(C)CC1=O | % | 10
CCOC(=O)Cn1c(=O)oc2cc(S(=O)(=O)Nc3ccc(N(CC)CC)cc3C)ccc21 | % | -11.3
CN(Cc1ccccc1)S(=O)(=O)c1ccc(S(=O)(=O)N2CCN(CCC#N)CC2)cc1 | % | -12
OC(COc1ccccc1)Cn1cc(Br)cn1 (stereo not given) | % | -3.63
CNC(=O)c1ccsc1NC(=O)CN1C(=O)CCC1=O | % | -11.5
Cn1ccnc1C(O)c1ccco1 (stereo not given) | % | -5.51
COC(=O)C1=C(C)NC2=C(C(=O)CCC2)C1c1coc2ccccc2c1=O (stereo not given) | % | -7.39
c1ccc(C2(Cn3ccc4ccccc43)OCCO2)cc1 | % | -4.05
CC1CCCN(c2ncnc3c2cnn3-c2ccccc2)C1 (stereo not given) | % | -2.51
